# Target or test system: UDP-N-acetylmuramoylalanine--D-glutamate ligase (Escherichia coli K-12)
# Sequence (P14900 whole entry): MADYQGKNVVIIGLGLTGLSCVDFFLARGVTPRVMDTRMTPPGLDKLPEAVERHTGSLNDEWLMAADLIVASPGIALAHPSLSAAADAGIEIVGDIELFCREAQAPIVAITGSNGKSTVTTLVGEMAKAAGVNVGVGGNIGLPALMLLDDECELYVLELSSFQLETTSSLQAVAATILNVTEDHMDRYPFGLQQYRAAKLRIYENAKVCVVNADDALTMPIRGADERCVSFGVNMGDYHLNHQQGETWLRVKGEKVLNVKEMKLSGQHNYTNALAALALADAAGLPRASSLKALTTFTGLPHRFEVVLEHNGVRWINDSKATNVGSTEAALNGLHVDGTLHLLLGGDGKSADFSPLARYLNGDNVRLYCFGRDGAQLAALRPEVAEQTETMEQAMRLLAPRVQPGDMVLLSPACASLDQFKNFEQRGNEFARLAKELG
# Assay: Residual activity of MurD from Escherichia coli at 1 mM
Note to self: use Met only for Activity readings below 80%; a reading exactly at 80% still gets Not met.

Req: Regarding CC(NC(=O)OCc1ccccc1)P(=O)(O)CCC(=O)O (stereo not given) , kindly confirm whether its Activity is beneath 80%.
Resp: Not met

Req: Regarding CC(NC(=O)[C@@H](C)NS(=O)(=O)Cc1cccc([N+](=O)[O-])c1)P(=O)(O)CC(CCC(=O)O)C(=O)O (stereo not given in full) , kindly confirm whether its Activity is beneath 80%.
Resp: Met

Req: Regarding CC(NS(=O)(=O)Cc1ccc([N+](=O)[O-])cc1)P(=O)(O)CC(CCC(=O)O)C(=O)O (stereo not given) , kindly confirm whether its Activity is beneath 80%.
Resp: Met

Req: Regarding CCC(C)C(NC(=O)OCc1ccccc1)P(=O)(O)CC(CCC(=O)O)C(=O)O (stereo not given) , kindly confirm whether its Activity is beneath 80%.
Resp: Not met

Req: Regarding CC(NS(=O)(=O)Cc1ccc(F)cc1Cl)P(=O)(O)CC(CCC(=O)O)C(=O)O (stereo not given) , kindly confirm whether its Activity is beneath 80%.
Resp: Met

---

I'd appreciate it if you could supply IC50 values for the items below.

Req: Param request: IC50 | system UDP-N-acetylmuramoylalanine--D-glutamate ligase (Escherichia coli K-12) | item CC(NC(=O)/C=C/c1ccc2c(c1)OCO2)P(=O)(O)CC(CCC(=O)O)C(=O)O (configuration not stated)
Resp: 95 µM

Req: Param request: IC50 | system UDP-N-acetylmuramoylalanine--D-glutamate ligase (Escherichia coli K-12) | item CC(NC(=O)[C@@H](C)NS(=O)(=O)Cc1ccc([N+](=O)[O-])cc1)P(=O)(O)CC(CCC(=O)O)C(=O)O (some centres not stated)
Resp: 78 µM

---

# Target or test system: UDP-N-acetylmuramoylalanine--D-glutamate ligase (Streptococcus pneumoniae serotype 4 (strain ATCC BAA-334 / TIGR4), UniProt Q97RU8)
# Sequence (Q97RU8 whole entry): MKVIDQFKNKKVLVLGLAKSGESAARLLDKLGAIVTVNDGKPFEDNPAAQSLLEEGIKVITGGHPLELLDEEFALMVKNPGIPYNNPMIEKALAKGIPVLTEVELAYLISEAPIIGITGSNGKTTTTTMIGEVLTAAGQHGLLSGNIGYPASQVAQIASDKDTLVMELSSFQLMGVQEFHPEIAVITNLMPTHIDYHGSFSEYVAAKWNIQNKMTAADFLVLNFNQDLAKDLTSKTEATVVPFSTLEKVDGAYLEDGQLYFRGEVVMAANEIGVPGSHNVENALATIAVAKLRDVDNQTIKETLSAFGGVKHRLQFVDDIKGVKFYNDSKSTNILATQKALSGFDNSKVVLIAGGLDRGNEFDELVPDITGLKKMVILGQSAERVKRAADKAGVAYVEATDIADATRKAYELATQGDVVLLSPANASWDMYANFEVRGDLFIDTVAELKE
# Assay: Inhibitory activity against MurD from Streptococcus pneumoniae
Property: pIC50
Units for pIC50: none; it is -log10 of a concentration expressed in mol/L.

Req: Look up pIC50 of CC(NC(=O)OCc1ccccc1)P(=O)(O)CC(CCC(=O)O)C(=O)O (stereo unspecified) and report it.
Resp: 4.00

---

# Target or test system: UDP-N-acetylmuramoylalanine--D-glutamate ligase (Escherichia coli K-12)
# Assay: Residual activity of MurD from Escherichia coli at 1 mM
Property: Activity (%)
Report as a plain number; the unit % is understood.

Req: Look up Activity of CC(NS(=O)(=O)Cc1ccc(C(F)(F)F)cc1)P(=O)(O)CC(CCC(=O)O)C(=O)O (centres undefined) and report it.
Resp: 50

Req: Look up Activity of CC(NC(=O)OCc1ccccc1)P(=O)(O)CC(CCC(=O)O)C(=O)O (centres undefined) and report it.
Resp: 41

Req: Look up Activity of CC(NC(=O)[C@@H](C)NS(=O)(=O)Cc1ccc([N+](=O)[O-])cc1)P(=O)(O)CC(CCC(=O)O)C(=O)O (some centres undefined) and report it.
Resp: 8

Req: Look up Activity of CC(NS(=O)(=O)c1ccccc1)P(=O)(O)CC(CCC(=O)O)C(=O)O (centres undefined) and report it.
Resp: 54

Req: Look up Activity of CC(NS(=O)(=O)c1cccc([N+](=O)[O-])c1)P(=O)(O)CC(CCC(=O)O)C(=O)O (centres undefined) and report it.
Resp: 52

Req: Look up Activity of CC(NS(=O)(=O)c1ccc2ccccc2c1)P(=O)(O)CC(CCC(=O)O)C(=O)O (centres undefined) and report it.
Resp: 55

Req: Look up Activity of CC(NS(=O)(=O)Cc1ccccc1)P(=O)(O)CC(CCC(=O)O)C(=O)O (centres undefined) and report it.
Resp: 40

Req: Look up Activity of CC(NS(=O)(=O)Cc1cccc(C(F)(F)F)c1)P(=O)(O)CC(CCC(=O)O)C(=O)O (centres undefined) and report it.
Resp: 49

Req: Look up Activity of CC(NC(=O)[C@@H](C)NC(=O)Cc1ccc2c(c1)OCO2)P(=O)(O)CC(CCC(=O)O)C(=O)O (some centres undefined) and report it.
Resp: 44
